Origin of values: ChEMBL document CHEMBL4627260

Molecular target: UniProt:P03372
Sequence (P03372 whole entry): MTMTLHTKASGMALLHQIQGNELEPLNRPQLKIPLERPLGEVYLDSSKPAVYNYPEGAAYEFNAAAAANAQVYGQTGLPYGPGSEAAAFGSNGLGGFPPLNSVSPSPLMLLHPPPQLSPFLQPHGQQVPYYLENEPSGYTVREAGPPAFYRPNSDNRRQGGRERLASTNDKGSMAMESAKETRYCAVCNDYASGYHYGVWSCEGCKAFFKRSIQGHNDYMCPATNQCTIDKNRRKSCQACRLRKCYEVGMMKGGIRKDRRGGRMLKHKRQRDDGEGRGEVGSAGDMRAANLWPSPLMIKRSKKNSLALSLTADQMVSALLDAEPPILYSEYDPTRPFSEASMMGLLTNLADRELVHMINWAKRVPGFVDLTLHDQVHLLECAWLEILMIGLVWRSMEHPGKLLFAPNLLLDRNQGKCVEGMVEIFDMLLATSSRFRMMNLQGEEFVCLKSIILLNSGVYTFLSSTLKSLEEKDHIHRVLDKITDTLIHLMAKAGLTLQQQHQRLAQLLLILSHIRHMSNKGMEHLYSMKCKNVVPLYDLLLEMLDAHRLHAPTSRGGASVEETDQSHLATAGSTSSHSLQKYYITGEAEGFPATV
Assay: Displacement of fluorescent estrogen ligand from recombinant human full length untagged ERalpha expressed in baculovirus infected insect cells incubated in dark for 2 hrs by Beacon single-tube fluorescent polarization assay
Value Kind: IC50 (nM)

{"Compound": "CCCCOC(=O)C1=C(N)Oc2cc(O)ccc2C1c1ccc(OCCN2CCCC2)cc1 (centres undefined)", "Measured Number": 20}
{"Compound": "CCOC(=O)C1=C(N)Oc2cc(O)ccc2C1c1ccc(OCCN2CCCCC2)cc1 (centres undefined)", "Measured Number": 20}
{"Compound": "N#CC1=C(N)Oc2cc(O)ccc2C1c1ccc(OCCN2CCOCC2)cc1 (centres undefined)", "Measured Number": 14000}
{"Compound": "CCOC(=O)C1=C(N)Oc2cc(O)ccc2C1c1ccc(OCCN2CCCC2)cc1 (centres undefined)", "Measured Number": 1410}
